Reference for the values: patent US20180030149A1

Recorded pKd by entry
- Tested target: T1, recombinant human ErbB3 monomeric protein (cleaved rhErbB3) (human, UniProt P21860 20-643, limits assumed)
- T1 construct: Monomer made by protease cleavage of the Fc fusion; also called Monomeric ErbB3
- Experiment summary: SPR Biacore 37 C; supernatant antibody captured on anti-human Fc, cleaved rhErbB3 injected
pKd: −log10 of the molar value.
Assay metric: pKd

| Binder | Val |
| --- | --- |
| Sh24C05-23 (antibody, human IgG1, kappa, V domains shown, Humanized, human IgG1/kappa) VH: QVQLVESGGGVVQPGRSLRLSCAASGFTFSDYAMSWVRQAPGKGLEWVATISDGGTYTYYPDNVKGRFTISRDNSKNTLYLQMSSLRAEDTAVYYCAREWGDYDGFDYWGQGTLVTVSS VL: DIQMTQSPSSLSASVGDRVTITCRASQEISGYLSWFQQKPGKAPKSLIYAASTLDSGVPSRFSGSGSGTDFTLTISSLQPEDFATYYCLQYDSYPYTFGQGTKLEIKR | 9.58 |
| Sh24C05-19 (antibody, human IgG1, kappa, V domains shown, Humanized, human IgG1/kappa) VH: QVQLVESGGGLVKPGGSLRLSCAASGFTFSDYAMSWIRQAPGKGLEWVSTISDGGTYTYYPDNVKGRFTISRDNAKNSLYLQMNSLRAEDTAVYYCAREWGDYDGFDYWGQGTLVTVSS VL: DIQMTQSPSSLSASVGDRVTITCRASQEISGYLSWLQQKPGGAIKRLIYAASTLDSGVPSRFSGSGSGSDYTLTISSLQPEDFATYYCLQYDSYPYTFGQGTKLEIKR | 10.07 |
| Sh24C05-22 (antibody, human IgG1, kappa, V domains shown, Humanized, human IgG1/kappa) VH: EVQLLESGGGLVQPGGSLRLSCAASGFTFSDYAMSWVRQAPGKGLEWVSTISDGGTYTYYPDNVKGRFTISRDNSKNTLYLQMNSLRAEDTAVYYCAREWGDYDGFDYWGQGTLVTVSS VL: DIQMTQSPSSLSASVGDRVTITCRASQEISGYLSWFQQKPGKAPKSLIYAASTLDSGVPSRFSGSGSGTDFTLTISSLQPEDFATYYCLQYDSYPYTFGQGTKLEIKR | 9.67 |
